measurement_label: melting point

1. CCCCCCCCCCCCCCCc1cccc(OC(C)C)c1C1C(C(=O)OC)=C(C)NC(=O)N1C(=O)OCC (stereo not shown)	120 to 121 °C
2. CCCCCCCCCCCCCCCc1cccc(OC(C)C)c1C1C(C(=O)OC(C)C)=C(C)NC(=O)N1C(=O)OCC (stereo not shown)	88 to 90 °C
3. CCCCCCCCCCCCCCCc1cccc(OCC)c1C1NC(=O)NC(C)=C1C(=O)OCC (stereo not shown)	99 to 100 °C
4. CCCCCCCCCCCCCCCc1cccc(OC)c1C1C(C(=O)OCC)=C(C)NC(=O)N1C(=O)OCC (stereo not shown)	109 to 110 °C
